# Tested on: NCI-H226 lung
# test_details: NCI tumour cell line growth inhibition, 48 h
Please respond with reported TGI for every item in the list.

Before answering, review these 6 worked examples.
compound=Cc1nc(C)c(N2CCN(C(=O)O)CC2)c(=O)[nH]1 observed_result="> 100 µM"
compound="COC(=O)C1=C(OC(=O)/C=C/c2ccc(Cl)cc2)C(C(=O)OC)[C@]2(O)[C@@H](C(=O)OC)[C@H]1C[C@@H](c1ccccc1)[C@@H]2C(=O)OC (stereo partly specified)" observed_result="18.6 µM"
compound="C/C(=N\\NC(=S)NC(CCC(=O)O)C(=O)O)c1cnccn1 (stereo unspecified)" observed_result="> 100 µM"
compound=NS(=O)(=O)c1nnc(NC(=O)c2cccc([N+](=O)[O-])c2)s1 observed_result="> 100 µM"
compound=COc1cc(/C=N/c2ccccn2)cc(OC)c1OC observed_result="> 100 µM"
compound=COc1ccc(Cn2cc3c(c2)-c2oncc2CC3)cc1OC observed_result="> 50 µM"

Provide reported TGI for each item, in the same order as listed.
1. Oc1cnc2c(O)cccc2c1
2. CC(C)CC(NP(=O)(O)OC1OC(C)C(O)C(O)C1O)C(=O)NC(Cc1c[nH]c2ccccc12)C(=O)O (stereo unspecified)
3. CCCCCCCCCC(CCCC(O)CC(=O)O)OC1OC(COC2OC(C)C(OC(C)=O)C(O)C2O)C(O)C(O)C1OC1OC(CO)C(O)C(O)C1OC1OC(C)C(OC(=O)CC(C)C)C(O)C1O (stereo unspecified)
4. CCc1[nH]c(=O)c2oc3cc4ccccc4cc3c2c1C(=O)O
5. COc1ccccc1-n1c(NN)nc2ccc(Br)cc2c1=O

[A]
1. 85.5 µM
2. > 100 µM
3. > 35 µM
4. > 10 µM
5. > 100 µM
